- protocol-summary: Inhibition of beta-lactamase AmpC (unknown origin) by UV-Vis spectrophotometry
reported-metric: pKi
Answer as the number alone; pKi is minus log10 of concentration in mol/L.

Previously resolved entries follow.
In: pKi lookup needed for O=C(O)c1ccc(CCCNS(=O)(=O)c2ccsc2C(=O)O)cc1 , thanks.
Out: 4.72

In: So what does the record say about pKi for O=C(O)c1sccc1S(=O)(=O)NCc1ccc(Cl)cc1 ?
Out: 3.95

In: Quick one: pKi for O=C(O)c1ccc(NS(=O)(=O)c2ccsc2C(=O)O)cc1 ?
Out: 5.77

In: For the compound O=C(O)c1ccc(CNS(=O)(=O)c2ccsc2C(=O)O)cc1 , what pKi is on record?
Out: 4.74

Now examine the next entry.
In: # pKi lookup, item Cc1ccc(CNS(=O)(=O)c2ccsc2C(=O)O)cc1
Out: 4.24

* * *

- protocol-summary: Competitive inhibition of beta-lactamase AmpC (unknown origin) by Lineweaver-Burk plot analysis
reported-metric: Ki (µM)
Write down the numeric answer in µM and omit the unit.

In: Which measured Ki value corresponds to O=C(O)c1ccc(CCNS(=O)(=O)c2ccsc2C(=O)O)cc1 ?
Out: 26
